- Assay method text: Pharmacokinetic studies in Sprague Dawley rats
- Assay type: in vivo
- Study conditions: rat, plasma; male Sprague Dawley rats, Oral (5 mg/kg)
Assay metric: half-life (h)
Number in h, nothing else.

Req: Query half-life for CNc1cc2nn3c(cnc13)C(=O)NC(C)COCc1ccc(OC)c(c1)N2 (centres unmarked) [Example 7]
Resp: 3.97

Req: Query half-life for CNc1cc2nn3c(cnc13)C(=O)N[C@H](C)COCc1cc(c(=O)n(C)c1)N2 [Example 15]
Resp: 4.11

----------
Assignment: determine reported pIC50 for the given compounds.
- Tested on: JAK2/TYK2 (IL-12 induced pSTAT4)
- Assay method text: IL-12 induced pSTAT4 in human PBMC
- Type: cell-based
- Study conditions: IL-12 10 ng/ml
Give only the number. pIC50 is defined as minus log10 of concentration in molar units.

Req: Query pIC50 for CNc1cc2nc3c(cnn13)C(=O)NCCOCc1ccc(OC)c(c1)N2 [Example 2]
Resp: 7.91

Req: Query pIC50 for CNc1cc2nn3c(cnc13)C(=O)NCCCOc1ccc(OC)c(c1)N2 [Example 4]
Resp: 7.79

Req: Query pIC50 for CNc1cc2nc3c(cnn13)C(=O)NCCCOc1ccc(OC)c(c1)N2 [Example 3]
Resp: 5.94

Req: Query pIC50 for CNc1cc2nc3c(cnn13)C(=O)NCCOCc1cnc(OC)c(c1)N2 [Example 1]
Resp: 6.55

----------
Assignment: determine reported Cmax for the given compounds.
- Assay method text: Pharmacokinetic studies in Sprague Dawley rats
- Type: in vivo
- Study conditions: rat, plasma; male Sprague Dawley rats, Oral (5 mg/kg)
- Method: The pharmacokinetics of test compounds were evaluated in male Sprague Dawley rats when administered via oral gavage and IV injection. The test compound was suspended in 0.5% methylcellulose for oral gavage and dissolved in 5% DMSO/5% Solutol/90% saline for IV injection. […] The samples were analyzed by LC/MS/MS and the concentration of test compound at each timepoint was determined by linear regression. Pharmacokinetic parameters were calculated from the plasma concentrations using Pheonix WinNonlin.
Number in ng/mL, nothing else.

Req: Query Cmax for CNc1cc2nn3c(cnc13)C(=O)N[C@H](C)COCc1cc(c(=O)n(C)c1)N2
Resp: 22.2

Req: Query Cmax for CNc1cc2nn3c(cnc13)C(=O)NC(C)COCc1ccc(OC)c(c1)N2 (centres unmarked)
Resp: 18.2

----------
- Assay method text: Pharmacokinetic studies in Sprague Dawley rats
- Type: in vivo
- Study conditions: rat, plasma, iv; male Sprague Dawley rats, I.V. (1 mg/kg); read-out: Vdss
- Protocol: The pharmacokinetics of test compounds were evaluated in male Sprague Dawley rats when administered via oral gavage and IV injection. The test compound was suspended in 0.5% methylcellulose for oral gavage and dissolved in 5% DMSO/5% Solutol/90% saline for IV injection. […] The samples were analyzed by LC/MS/MS and the concentration of test compound at each timepoint was determined by linear regression. Pharmacokinetic parameters were calculated from the plasma concentrations using Pheonix WinNonlin.
Assay metric: Vd (L/kg)
Number in L/kg, nothing else.

Req: Query Vd for CNc1cc2nn3c(cnc13)C(=O)NC(C)COCc1ccc(OC)c(c1)N2 (centres unmarked)
Resp: 0.956

Req: Query Vd for CNc1cc2nn3c(cnc13)C(=O)N[C@H](C)COCc1cc(c(=O)n(C)c1)N2
Resp: 2.17

----------
- Target or system: human TYK2 (JH2domain-pseudokinase) (Homo sapiens)
- Construct: unpurified extract
- Sequence (P29597 556-888): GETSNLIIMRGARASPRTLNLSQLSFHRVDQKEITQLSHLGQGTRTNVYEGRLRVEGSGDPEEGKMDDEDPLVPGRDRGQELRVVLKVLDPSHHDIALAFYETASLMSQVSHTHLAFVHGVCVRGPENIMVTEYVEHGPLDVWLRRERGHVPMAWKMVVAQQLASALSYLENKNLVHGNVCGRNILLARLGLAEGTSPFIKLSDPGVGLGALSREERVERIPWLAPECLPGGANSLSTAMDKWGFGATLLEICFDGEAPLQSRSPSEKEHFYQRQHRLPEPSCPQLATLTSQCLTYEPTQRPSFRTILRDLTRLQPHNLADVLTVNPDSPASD
- Assay method text: TYK2 JH2 domain binding assay (KINOMEscan)
- Study conditions: duplicate
Assay metric: pKd
Give only the number. pKd is defined as minus log10 of concentration in molar units.

Req: Provide pKd, system human TYK2 (JH2domain-pseudokinase) (Homo sapiens), entry CNc1cc2nn3c(cnc13)C(=O)NCCCOc1ccc(OC)c(c1)N2
Resp: 9.42

Req: Provide pKd, system human TYK2 (JH2domain-pseudokinase) (Homo sapiens), entry CNc1cc2nc3c(cnn13)C(=O)NCCOCc1ccc(OC)c(c1)N2
Resp: 9.85

Req: Provide pKd, system human TYK2 (JH2domain-pseudokinase) (Homo sapiens), entry CNc1cc2nc3c(cnn13)C(=O)NCCOCc1cnc(OC)c(c1)N2
Resp: 9.62

Req: Provide pKd, system human TYK2 (JH2domain-pseudokinase) (Homo sapiens), entry CNc1cc2nc3c(cnn13)C(=O)N[C@H](C)COCc1ccc(C(F)(F)F)c(c1)N2
Resp: 11.64

Req: Provide pKd, system human TYK2 (JH2domain-pseudokinase) (Homo sapiens), entry CNc1cc2nn3c(cnc13)C(=O)NC(C)COCc1ccc(OC)c(c1)N2 (stereo not shown)
Resp: 11.15

Req: Provide pKd, system human TYK2 (JH2domain-pseudokinase) (Homo sapiens), entry CNc1cc2nc3c(cnn13)C(=O)NCCCOc1ccc(OC)c(c1)N2
Resp: 9.02

Req: Provide pKd, system human TYK2 (JH2domain-pseudokinase) (Homo sapiens), entry CNc1cc2nn3c(cnc13)C(=O)NCCOCc1ccc(OC)c(c1)N2
Resp: 10.15

----------
Assignment: determine reported half-life for the given molecules.
- Assay method text: Pharmacokinetic studies in Sprague Dawley rats
- Format: in vivo
- Study conditions: rat, plasma, iv; male Sprague Dawley rats, I.V. (1 mg/kg)
Number in min, nothing else.

Req: Query half-life for CNc1cc2nn3c(cnc13)C(=O)N[C@H](C)COCc1cc(c(=O)n(C)c1)N2
Resp: 61.2

Req: Query half-life for CNc1cc2nn3c(cnc13)C(=O)NC(C)COCc1ccc(OC)c(c1)N2 (centres unmarked)
Resp: 18

----------
Assignment: determine reported IC50 for the given molecules.
- Test system: INFα induced pSTAT3
- Assay method text: INFα induced pSTAT3 in human PBMC
- Type: cell-based
- Study conditions: INFα 5000 units/ml, read-out: p-STAT3 IC50
Number in µM, nothing else.

Req: Query IC50 for CNc1cc2nc3c(cnn13)C(=O)NCCOCc1cnc(OC)c(c1)N2
Resp: 0.0876

Req: Query IC50 for CNc1cc2nc3c(cnn13)C(=O)NCCCOc1ccc(OC)c(c1)N2
Resp: 1.46

----------
- Assay method text: Pharmacokinetic studies in Sprague Dawley rats
- Assay type: in vivo
- Study conditions: rat, plasma; male Sprague Dawley rats, Oral (5 mg/kg)
Assay metric: Tmax (h)
Number in h, nothing else.

Req: Query Tmax for CNc1cc2nn3c(cnc13)C(=O)N[C@H](C)COCc1cc(c(=O)n(C)c1)N2 [Example 15]
Resp: 2.67

Req: Query Tmax for CNc1cc2nn3c(cnc13)C(=O)NC(C)COCc1ccc(OC)c(c1)N2 (centres unmarked) [Example 7]
Resp: 0.667

----------
Assignment: determine reported clearance for the given compounds.
- Assay method text: Pharmacokinetic studies in Sprague Dawley rats
- Type: in vivo
- Study conditions: rat, plasma, iv; male Sprague Dawley rats, I.V. (1 mg/kg)
Number in mL/min/kg, nothing else.

Req: Query clearance for CNc1cc2nn3c(cnc13)C(=O)N[C@H](C)COCc1cc(c(=O)n(C)c1)N2 [Example 15]
Resp: 36.1

Req: Query clearance for CNc1cc2nn3c(cnc13)C(=O)NC(C)COCc1ccc(OC)c(c1)N2 (centres unmarked) [Example 7]
Resp: 52.4
